Biological target: T1, human Interleukin-1 receptor (IL-1R-alpha) (human, UniProt P14778 18-569)
T1 sequence: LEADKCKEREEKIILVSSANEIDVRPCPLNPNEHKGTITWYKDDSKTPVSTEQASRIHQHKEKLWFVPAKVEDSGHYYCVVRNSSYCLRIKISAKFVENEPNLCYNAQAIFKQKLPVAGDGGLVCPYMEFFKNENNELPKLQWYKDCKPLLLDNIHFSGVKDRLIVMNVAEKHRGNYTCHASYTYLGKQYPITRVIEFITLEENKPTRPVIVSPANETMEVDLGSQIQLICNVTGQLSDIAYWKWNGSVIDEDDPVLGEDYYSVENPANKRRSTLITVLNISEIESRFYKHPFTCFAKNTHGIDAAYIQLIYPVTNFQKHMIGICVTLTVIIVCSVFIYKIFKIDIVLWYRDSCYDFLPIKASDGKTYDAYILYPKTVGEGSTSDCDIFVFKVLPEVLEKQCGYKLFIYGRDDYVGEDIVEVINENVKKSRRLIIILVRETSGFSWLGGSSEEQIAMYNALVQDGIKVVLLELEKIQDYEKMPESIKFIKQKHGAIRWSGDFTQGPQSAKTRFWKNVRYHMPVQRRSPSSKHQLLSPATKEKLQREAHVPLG
Assay: cell-based or functional assay
Where no end group is shown, it is not given here. [ ]: non-standard residue; d: D form. dOrn = NCCC[C@@H](N)C(=O)O
Assay Endpoint: Emax (%), IL-1β-induced TF-1 proliferation

{"Binder": "[dR][dY][dT][dP][dE][dL] [API-101.113]", "Observed Measurement": "70%"}
{"Binder": "[dOrn][dY][dT][dP][dE][dL] [API-101.126]", "Observed Measurement": "0%"}
{"Binder": "[dR][dW][dT][dP][dE][dL] [API-101.128]", "Observed Measurement": "100%"}
{"Binder": "R[dY][dT][dP][dE][dL] [API-101.135]", "Observed Measurement": "63%"}
{"Binder": "[dR][dF][dV][dP][dE][dL][dA] [API-101.127]", "Observed Measurement": "< 30%"}
{"Binder": "[dR][dY][dT][dP][dE][dV] [API-101.129]", "Observed Measurement": "50%"}
{"Binder": "[dK][dY][dT][dP][dE][dL] [API-101.133]", "Observed Measurement": "< 10%"}

Origin of the recorded values: patent US20090048161A1
